src = ChEMBL document CHEMBL1201862

# Tested on: SK-MEL-2
# Run Description: NCI tumour cell line growth inhibition, 48 h
The source made the active and inactive calls. Rule as the data show it: active = GI50 up to about 1.1 µM and inactive = higher.
Can you answer with just one of these options? TRUE = active, FALSE = inactive

Previously resolved entries follow.
O=C1CS(=O)(=O)C(c2cccc(Oc3ccccc3)c2)N1c1cc(Cl)ccc1Cl (stereo not given)	FALSE
Nc1nc(Cl)cc(NCC2(O)CC2)n1	FALSE

[in] Can you look up the reported call for NCCCCNC1(c2cc3ccccc3s2)CCCCC1 for me?
[out] FALSE

---

# Tested on: ACHN
# Run Description: NCI tumour cell line growth inhibition, 48 h
The source made the active and inactive calls. Rule as the data show it: active = GI50 up to about 1.1 µM and inactive = higher.
Can you answer with just one of these options? active, inactive

N#C[C@@H](c1nc2ccccc2s1)c1ncccc1[N+](=O)[O-]	inactive
Cc1cnc(-n2c(C)nc3cc(Cl)ccc3c2=O)s1	inactive
c1ccc(C2[C@@H]3CCCc4ccccc4C3=NN2c2ccccc2)cc1 (stereo partly specified)	inactive
O=C(O)/C=C/c1ccc(Oc2ccccc2C(=O)O)o1	inactive

[in] Can you look up the reported call for O=S(O)c1cc(Cl)cc(Cl)c1O for me?
[out] inactive

[in] Can you look up the reported call for CC(=O)c1cccc(NC(=O)C(=O)NNc2nnc(S)n2N)c1 for me?
[out] inactive

[in] Can you look up the reported call for COc1cc2c(cc1OC)C1=Cc3cc(OC)c(OC)cc3C(C)N1C=C2 (stereo unspecified) for me?
[out] inactive

[in] Can you look up the reported call for CC(C)C[C@H](NC(=O)[C@H](Cc1ccccc1)NC(=O)c1cnccn1)B(O)O for me?
[out] active

[in] Can you look up the reported call for CCOC(=O)C(=O)C1C(=O)Nc2ccccc21 (stereo unspecified) for me?
[out] inactive

[in] Can you look up the reported call for CCNC(=S)NNC(=O)c1ccccc1Nc1ccccc1C(=O)NNC(=S)NCC for me?
[out] inactive

[in] Can you look up the reported call for CCOC(=O)C1=C(C)OC(=O)[C@@]2(OC)C=C(Cl)[C@@]12C for me?
[out] inactive

---

# Tested on: SR
# Run Description: NCI tumour cell line growth inhibition, 48 h
Activity calls are given as the source filed them. No stated cut-off is given here; in the data, active = GI50 up to about 1.1 µM and inactive = higher.
Can you answer with just one of these options? true = active, false = inactive

CN(C)CCNc1ccc2ncnc3c2c1C(=O)c1ccccc1-3	true

[in] Can you look up the reported call for Cc1cc(C(=O)CSC(=S)SC(C)(C)C)ccc1Cl for me?
[out] false

[in] Can you look up the reported call for O=C(O)c1ccccc1SCc1cccc2c(=O)c3ccc(Cl)cc3oc12 for me?
[out] false

[in] Can you look up the reported call for Cc1ccc(S(=O)(=O)NNS(C)(=O)=O)cc1 for me?
[out] false

[in] Can you look up the reported call for C[n+]1c2ccc(Cl)cc2nc2cc(-c3ccccc3)ccc21 for me?
[out] false

[in] Can you look up the reported call for Cc1ccc2c(=O)[nH]sc2c1 for me?
[out] false

---

# Tested on: 786-0
# Run Description: NCI tumour cell line growth inhibition, 48 h
Calls of active or inactive are those of the source. No stated cut-off is given here; in the data, active = GI50 up to about 1.1 µM and inactive = higher.
Can you answer with just one of these options? 1 = active, -1 = inactive

[in] Can you look up the reported call for CC(C)C(=O)N1C(=O)O[C@@H](c2ccccc2)[C@H]1C for me?
[out] -1

[in] Can you look up the reported call for Clc1ccc(CCN(CCc2ccc(Cl)c(Cl)c2)CCN2CCCC2)cc1Cl for me?
[out] -1

[in] Can you look up the reported call for COc1ccc(CNc2nc(NCc3ccc(OC)c(OC)c3)nc(NC3CCCCC3)n2)cc1 for me?
[out] -1

[in] Can you look up the reported call for CN(CCCNC(=O)c1cn(C)c2c1ccc1cc(Cl)c(Cl)cc12)CCCNC(=O)c1cn(C)c2c1ccc1cc(Cl)c(Cl)cc12 for me?
[out] -1

[in] Can you look up the reported call for O=C(CC(C(=O)c1ccco1)c1cccs1)c1cccs1 (stereo not drawn) for me?
[out] -1

---

# Tested on: IGROV-1
# Run Description: NCI tumour cell line growth inhibition, 48 h
Active and inactive are the calls of the source. Cut-off read from the data, not from the text of the source: active = GI50 up to about 1.1 µM and inactive = higher.
Can you answer with just one of these options? active, inactive

Previously resolved entries follow.
CC(C)(CO)NC1=C(Cl)C(=O)c2c(O)ccc(O)c2C1=O	inactive
COc1ccc2nc3c(nc2c1)C(C)(C)C=C3c1ccc(Br)cc1	inactive
C[C@H](C(=O)O)C(=O)NC(=O)N(Cc1ccccc1)N=O	inactive
CC1CC(C)CC(C)C(O)/C(C#N)=C/C=C/CC(C2CCCC2C(=O)O)OC(=O)CC(O)C(C)C1 (stereo not given)	active
Nc1nc(F)nc2c1ncn2C1OC(COP(=O)(O)O)C(O)C1O (stereo not given)	inactive

[in] Can you look up the reported call for Clc1ccc(N/N=C(\c2ccccc2)c2ccccn2)nc1 for me?
[out] active

[in] Can you look up the reported call for C[Si](C)(C)C#CCO[Si](C)(C)C for me?
[out] inactive

[in] Can you look up the reported call for O=C1c2ccccc2C(=O)N1CCCCNOCCCN1C(=O)c2ccccc2C1=O for me?
[out] inactive

[in] Can you look up the reported call for COC(=O)C12C3C4C1C1C2C3C41C(=O)OC(C)(C)C (stereo not given) for me?
[out] inactive

[in] Can you look up the reported call for CCCCCCN(C(=O)Oc1ccccc1)C(C#N)c1ccccc1 (stereo not given) for me?
[out] inactive

[in] Can you look up the reported call for O=C(Nc1ccc(N=C=S)cc1Cl)c1cc(Br)cc(Br)c1O for me?
[out] inactive

[in] Can you look up the reported call for CCOC(=O)C12CCCC1(O)N(NC(=O)c1cccc(Cl)c1)C(C)=C2C(=O)OC (stereo not given) for me?
[out] inactive

[in] Can you look up the reported call for O=C1CC(Br)c2c(Cl)sc(Cl)c21 (stereo not given) for me?
[out] inactive

[in] Can you look up the reported call for CCCCCCCCCCCCCCCCOP(=O)(O)OCC(N)C(=O)O (stereo not given) for me?
[out] inactive

---

# Test system: A549
# Run Description: NCI tumour cell line growth inhibition, 48 h
Active and inactive are the calls of the source. Rule as the data show it: active = GI50 up to about 1.1 µM and inactive = higher.
Can you answer with just one of these options? 1 (yes) for active, 0 (no) for inactive

Previously resolved entries follow.
CSC1CC2C(CC1(C)O)C2(C)C (centres undefined)	0 (no)
COc1cc(S(=O)(=O)Nc2ccc(-c3csc(N4C(=O)C(C)SC4c4cccc(Oc5ccccc5)c4)n3)cc2)ccc1Cl (centres undefined)	0 (no)
C=C(Cl)C(=C)CCC(Cl)C(C)(C)Cl (centres undefined)	0 (no)
N#CC(C#N)C1CN2CCC1CC2 (centres undefined)	0 (no)
[N-]=[N+]=NC(c1cn(C2CC(O)C(CO)O2)c(=O)[nH]c1=O)C(I)I (centres undefined)	0 (no)

[in] Can you look up the reported call for Cc1ccc2c(=O)[nH]sc2c1 for me?
[out] 0 (no)

---

# System: A498
# Run Description: NCI tumour cell line growth inhibition, 48 h
Activity calls are given as the source filed them. Rule as the data show it: active = GI50 up to about 1.1 µM and inactive = higher.
What GI50 was measured for each of the following?

COc1cc(/C=C(\C)[N+](=O)[O-])cc(OC)c1	8.05 µM (inactive)
CC1(c2ccc(F)cc2)CC(c2ccc(F)cc2)=C(C#N)C(=C(C#N)C#N)N1 (centres undefined)	19.6 µM (inactive)
COc1ccc2nc3c(nc2c1)C(C)(C)C=C3c1ccc(Br)cc1	> 100 µM (inactive)
CC1(c2cccc(C(F)(F)F)c2)CC(c2cccc(C(F)(F)F)c2)=C(C#N)C(=C(C#N)C#N)N1 (centres undefined)	18.1 µM (inactive)
Cn1ccnc1CCc1ccc(F)cc1F	> 100 µM (inactive)
CCOC(=O)C(=O)C1C(=O)Nc2ccccc21 (centres undefined)	> 100 µM (inactive)

Give me GI50 for each of these compounds, listed below.
1. COc1ccc(-c2oc3cc(OC)c(OC)c(OC)c3c(=O)c2OC)cc1OC
2. NC(=O)N/N=C1/c2ccccc2-n2nccc21
3. CC1=CC(=O)[C@@H](O)[C@]2(C)[C@H]3[C@@]4(O)OC[C@@]35[C@@H](C[C@@H]12)OC(=O)C(OC(=O)CC1=CCCC1)[C@H]5[C@@H](C)[C@H]4O (some centres undefined)

[out]
1. > 100 µM (inactive)
2. 38.7 µM (inactive)
3. 0.429 µM (active)

---

# Tested on: COLO 205
# Run Description: NCI tumour cell line growth inhibition, 48 h
The source made the active and inactive calls. Rule as the data show it: active = GI50 up to about 1.1 µM and inactive = higher.
Assay Readout: GI50

Cc1ccc(NC(=S)C#N)c(C)c1	> 84.1 µM (inactive)
COc1ccc2cc(-c3nc(N)nc(N4N=C(C)CC4(C)C)n3)c(=N)oc2c1	16.6 µM (inactive)
COc1ccccc1C1CC(=O)CC(c2ccccc2OC)C12C(=O)NC(=S)NC2=O (configuration not stated)	32.6 µM (inactive)
CC(C)/C(Cl)=N/OC(=O)Nc1ccc(Cl)c(Cl)c1	1.83 µM (inactive)

Give me GI50 for each of these molecules, listed below.
1. NCCCCNCCCN1CC1
2. C[C@]12CCC(=O)C=C1CC[C@@H]1C2CC[C@@]2(C)C1CC[C@@H]2OC(=O)C12OC1CCC2=O (some centres not stated)
3. C[C@]12CC[C@@H]3c4ccc(OP(=O)(O)O)cc4CC[C@H]3[C@@H]1CCC2=O

[out]
["0.871 µM (active)", "17.9 µM (inactive)", "> 100 µM (inactive)"]
